Hello, the source for this data is a melting point compilation (Tetko et al.; mined from patent text by program, amines drawn as free bases though some values may be those of a salt), in case you need it.

Each entry below lists one item and its recorded melting point value.

Use these answered entries as a reference point.
1) CCn1cc(CN(C(=O)C2CCCc3ccc(OCc4ccccc4)cc32)c2ccc(C(C)C)cc2)cn1 (centres undefined)
100 to 101 °C
2) CCCCCN1C(=O)C2(COc3cc4c(cc32)CCO4)c2ccccc21 (centres undefined)
128 to 129 °C
3) Cc1ccc(-c2ccc3c(c2)C=C(C(=O)Nc2ccc(CN(C)C4CCOCC4)cc2)CC(c2ccccc2)O3)cc1 (centres undefined)
178 to 179 °C

Prompt line: Looking for the measured melting point of `CSc1ccc(N2CCN(c3c(C)c(C)c4c(c3C)CC(C)(C)O4)CC2)cc1` , can you help?
Response line: 211 to 213 °C

Prompt line: Sample CCOC(=O)C1=CNC2=C(C(=O)OCC)CCC(C)N2C1=O (centres undefined) — what was its melting point?
Response line: 138 to 140 °C

Prompt line: Returns the measured melting point for the input compound. Input: `CC(C)(Oc1ccc(CCN)cc1)C(=O)O`
Response line: 187 to 189 °C

Prompt line: Query: melting point; subject: `CSc1nc2cnc3ccccc3c2s1`
Response line: 116 to 119 °C

Prompt line: Quick one: melting point of `CCNc1c([N+](=O)[O-])cc2c(=O)c(C(=O)O)cn(-c3cc(N)c(F)cc3F)c2c1C` ?
Response line: 250 to 254 °C

Prompt line: # query: melting point of entry `O=C(O)c1ccc(C(=C2CC3CCC(C2)N3CCc2ccccc2)c2ccccc2)cc1`
Response line: 285 to 290 °C

Prompt line: Recorded melting point of `COc1cc(CCl)ccc1OCc1nc(-c2cccc(C#N)c2)oc1C` , please.
Response line: 150 to 151 °C

* * *

Reported melting point by item:

Some solved cases for reference:
1. COC(=O)c1ccc(Cl)c(C2(O)C(=O)N(Cc3ccc(Cl)cc3OC)c3ccc(Cl)cc32)c1 (centres undefined)
205 °C
2. Cc1cccc(N2CCN(CCCCc3ccc(C4CCC(=O)N4)cc3)CC2)c1C (centres undefined)
112 to 114 °C
3. Cn1ncc(C(=O)N2CC(F)C2)c1C(=O)Nc1ccn2nc(-c3cccnc3)nc2c1
247 to 249 °C
4. Fc1ccc2nc(-c3ccccc3)cc(OCC3CO3)c2c1 (racemic)
118 to 120 °C
5. Cc1nnc(-c2ccc3occ(-c4ccc(SCc5ccccc5)cc4)c3c2)o1
158 to 159 °C
6. N#Cc1cc(C(F)(F)F)ccc1Nc1ccccc1[N+](=O)[O-]
160 to 161 °C

Prompt line: What melting point value was documented for this compound, `CC(=O)Oc1ccc(-c2ccccc2)cc1C1(OC(C)=O)C(=O)c2ccccc2C1=O` ?
Response line: 196 to 198 °C

Prompt line: Consider the compound shown here: `CC1(C)OC(=O)C(=Cc2ccc(I)s2)C1=O` What is its recorded melting point?
Response line: 182 to 184 °C

Prompt line: What value of melting point has been reported for the following compound? `CC(C)(C)Cc1c(CC(C)(C)C(=O)O)n(Cc2ccc(Cl)cc2)c2ccc(OCc3ccc4sccc4n3)cc12`
Response line: 187 to 188 °C

Prompt line: // query melting point value for entry `O=C(c1ccc(F)cc1)N1CCC[C@H](c2noc(-c3ccc(F)cc3)n2)C1`
Response line: 120 to 123 °C

Prompt line: So what's the measured melting point for this one? `Nc1cc2c(cc1Oc1ccccc1)C(=O)CCO2`
Response line: 154 to 155 °C

Prompt line: What value of melting point has been recorded for this entry: `CC(C)(C)CC(C)(C)c1cc(N=Nc2cc(C#N)ccc2Cl)c(O)c(C(C)(C)c2ccccc2)c1`
Response line: 190 to 191 °C

Prompt line: Endpoint output: melting point of `Cc1nn(-c2c(Cl)cc(S(=O)(=O)C(F)(F)F)cc2Cl)nc1-c1nc(C#N)c(C#N)[nH]1` . Value?
Response line: 244 to 245 °C

Prompt line: May I ask what melting point has been recorded for `Cc1nc2nc(-c3ccc(Cl)cc3)nn2c(=S)n1C` ?
Response line: > 300 °C

Prompt line: Recorded melting point of CC1=CC2C(=O)NC(=O)C2(Cc2ccccc2)C=C1 (centres undefined) , please.
Response line: 128 to 130 °C

Prompt line: Query (compound): `CCCc1ccc(-c2ccc3c(c2)C=C(C(=O)Nc2ccc(CN(C)C4CCOCC4)cc2)CCS3(=O)=O)cc1` ; field requested: melting point
Response line: 247 to 250 °C

Prompt line: What value of melting point has been recorded for this entry: `CN1C(=O)c2cnc(-c3ccccc3)nc2Nc2ccccc21`
Response line: 227 °C

Prompt line: Would you kindly share the measured melting point for CC(C)CC1(C(C)C(=O)NO)CCN(CCc2ccccc2)C1=O (centres undefined) ?
Response line: 107 to 108 °C

Prompt line: // returns reported melting point for input O=C(c1cnc2ccccc2n1)N1CC2CC2(c2ccc(Cl)cc2)C1 (centres undefined)
Response line: 90 to 105 °C

* * *

property: melting point

Consider the reported melting point for these compounds:
1. Cc1noc(-c2ccc(Cl)cc2)c1-c1ccc(S(N)(=O)=O)cc1
194 to 197 °C
2. C=CCS(=O)c1c(O)cc(C)oc1=O (stereo not given)
111 to 112 °C
3. Cn1c(=O)c2c(ncn2CCCCCC#N)n(C)c1=O
86 to 88 °C
4. CCN1CCCC1CNC(=O)c1ccc2c(c1)C(=O)C1(CC1)O2 (stereo not given)
161 to 166 °C
5. CC(C)(C)OC(=O)[C@@H]1CSC(Cc2ccccc2)N1C(=O)CNC(=O)Nc1cccc(CC(=O)O)c1 (stereo not given in full)
110 °C

Prompt line: Please report the recorded melting point for `CCCc1c(C(=O)C2CCCCC2)c2ccc(C(N)=O)cc2n1Cc1cc2c(cc1Cl)OCO2` .
Response line: 209 to 211 °C

Prompt line: Field request: melting point | item: Cc1cccc(C)c1N(CCCc1cccnc1)C(=O)CC(C)N1C(=O)c2ccccc2C1=O (stereo not given)
Response line: 169 to 171 °C

* * *

Listed here: items and their measured melting point.

Prompt line: Give its melting point value. Item: `O=c1c2cccc3ncc(c(=O)n1CCCCNS(=O)(=O)C(F)(F)F)n32`
Response line: 206 to 207 °C

Prompt line: Can you share its melting point? I mean this molecule: `CCCCc1nc(C(=O)CC)c(C#N)n1C(c1ccccc1)(c1ccccc1)c1ccccc1`
Response line: 140 to 143 °C

Prompt line: What does the data say about its melting point? Entry: `CCC(=O)Oc1n[nH]c(=O)c2nc3cc(Cl)ccc3c(O)c12`
Response line: 275 to 278 °C

Prompt line: Fill in: melting point of `COc1cc(OC(=O)c2cccnc2)c2c(=O)c(OC)c(-c3ccc(OC(=O)c4cccnc4)c(OC)c3)oc2c1` is ___
Response line: 212 to 214 °C

Prompt line: // lookup melting point for C=C(c1ccc(I)cc1)C(O)(Cn1cncn1)c1ccccc1F (stereo not given)
Response line: 117 to 118 °C

* * *

Entries and their melting point values follow.

Some entries whose results are on file:
1. COc1ccc(CCN(C)CCOc2ccc(NC(=O)c3cccc4c(=O)c5cccc(OC)c5[nH]c34)cc2)cc1OC
190 °C
2. O=C(O)c1cc([N+](=O)[O-])c(Nc2ccccc2)c(S(=O)(=O)Nc2ccccc2)c1
249 to 250 °C
3. Clc1ccc(COC(CNc2ccc(Cl)c(Cl)c2)Cn2ccnc2)cc1 (configuration not stated)
102 to 103 °C
4. COC(=O)C1=C(C)NC(C)=C(C(=O)OCC2CCCO2)C1c1ccccc1Br (configuration not stated)
170 to 172 °C
5. O=C1c2cccc(Cl)c2C(=O)N1CCN1CCC(c2noc3cc(F)ccc23)CC1
170 to 171 °C

Prompt line: Sample CC(Oc1ccc2c(c1)OCC(Cc1ccccn1)C2O)c1ccc2ccccc2n1 (configuration not stated) — what was its melting point?
Response line: 73 °C

Prompt line: I am curious: what melting point value has been reported for `COc1ccc(C(=O)NCc2ccc(C)n2CCC#N)cc1OC` ?
Response line: 175 to 176 °C

* * *

Listed below: melting point values for each entry.

Some solved entries appear below for comparison.
1. Cc1nc(-c2cccc(CN3C(=O)C4(COc5cc6c(cc54)CCO6)c4ccccc43)c2)no1 (stereo not drawn)
209 to 213 °C
2. Cc1cnc(CCCCNc2ncc(Cc3ccc(CO)nc3)c(=O)[nH]2)c(Br)c1
150 to 152 °C
3. O=[N+]([O-])c1cccc(Oc2cncc(Cl)n2)c1
118 to 119 °C
4. C=C1C[C@@H](O)[C@H](/C=C/[C@@H](O)CCCCC)[C@H]1Cc1cccc(OCc2ccccc2)c1
58 °C
5. O=C1OC(O)(Nc2ccccc2Br)C(c2ccccc2)C1c1ccccc1 (stereo not drawn)
162 to 164 °C

Prompt line: Query (compound): `CS(=O)(=O)NCCCCn1c(CCCOc2ccccc2)nc2c(N)nc3ccccc3c21` ; field requested: melting point
Response line: 156 to 157 °C
